Reported IC50 by item:
Biological target: His-tagged KRAS G12D protein (Homo sapiens, UniProt P01116, G12D)
Sequence (P01116 1-188 isoform P01116-2 G12D): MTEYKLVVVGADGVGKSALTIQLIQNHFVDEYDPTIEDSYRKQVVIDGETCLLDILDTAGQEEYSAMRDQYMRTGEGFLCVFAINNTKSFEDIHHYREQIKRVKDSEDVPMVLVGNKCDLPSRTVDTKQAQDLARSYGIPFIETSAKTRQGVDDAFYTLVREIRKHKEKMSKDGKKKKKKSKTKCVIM
Assay: KRAS G12D TR-FRET assay (binding)
Conditions: biotinylated KRPep-2d substrate, GDP in assay buffer
Hi! Could you send only the number? It should be in nM, unit omitted.

Inquiry: # IC50 lookup, item CCc1c(F)ccc2cc(O)cc(-c3ncc4c(N5CCOC[C@H](CO)C5)nc(OC[C@@]56CCCN5C[C@H](F)C6)nc4c3F)c12
Reply text: 13

Inquiry: Need IC50, item Oc1cc(-c2ncc3c(N4CCCOCC4)nc(OC[C@@]45CCCN4C[C@H](F)C5)nc3c2F)c2c(F)c(F)ccc2c1
Reply text: 2

Inquiry: Returns the measured IC50 for the input molecule. Input: CCc1c(F)ccc2cc(O)cc(-c3ncc4c(N5CCOCC5)nc(OC[C@@]56CCCN5C[C@H](F)C6)nc4c3F)c12
Reply text: 11

Inquiry: Quick check: IC50 of CCc1c(F)ccc2cc(O)cc(-c3ncc4c(N5CCOC(C(N)=O)C5)nc(OC[C@@]56CCCN5C[C@H](F)C6)nc4c3F)c12 (stereo partly drawn) ?
Reply text: 6

Inquiry: Would you mind telling me what IC50 value was observed for CCc1c(F)ccc2cc(O)cc(-c3ncc4c(N5CCOC(CC#N)C5)nc(OC[C@@]56CCCN5C[C@H](F)C6)nc4c3F)c12 (stereo partly drawn) ?
Reply text: 43

Inquiry: State the recorded IC50 for this entry: CCc1c(F)ccc2cc(O)cc(-c3ncc4c(N5CCCOC(CO)C5)nc(OC[C@@]56CCCN5C[C@H](F)C6)nc4c3F)c12 (stereo partly drawn) [Example 56]
Reply text: 3

Inquiry: For the molecule CCc1c(F)ccc2cc(O)cc(-c3ncc4c(N5CCSCC5)nc(OC[C@@]56CCCN5C[C@H](F)C6)nc4c3F)c12 , what IC50 is on record?
Reply text: 4

Inquiry: Any idea what its IC50 is? The molecule is CCc1c(F)ccc2cc(O)cc(-c3ncc4c(N5CCOCC(S(N)(=O)=O)C5)nc(OC[C@@]56CCCN5C[C@H](F)C6)nc4c3F)c12 (stereo partly drawn)
Reply text: 5

Inquiry: Value lookup for IC50; key = Cc1c(Cl)cc2[nH]ncc2c1-c1ncc2c(N3CCCOCC3)nc(OC[C@@]34CCCN3C[C@H](F)C4)nc2c1F
Reply text: 36

---

Target: His-tagged KRAS G12D protein (Homo sapiens, UniProt P01116, G12D)
Assay: KRAS G12D TR-FRET assay (binding)
Conditions: biotinylated KRPep-2d substrate, GDP in assay buffer
IC50 strictly under 5 nM means fulfilled; at 5 nM or over means not fulfilled.

For orientation, consider the following solved cases.
Inquiry: I'd appreciate it if you could check whether CCc1c(F)ccc2cc(O)cc(-c3ncc4c(N5CCOCC[C@@H]5C)nc(OC[C@@]56CCCN5C[C@H](F)C6)nc4c3F)c12 has IC50 smaller than 5 nM.
Reply text: not fulfilled

Inquiry: Determine whether this molecule shows IC50 lower than 5 nM (ties excluded): CCc1c(F)ccc2cc(O)cc(-c3ncc4c(N5CCOC(CO)C5)nc(OC[C@@]56CCCN5C[C@H](F)C6)nc4c3F)c12 (some centres unmarked)
Reply text: not fulfilled

Inquiry: Does this molecule meet the criterion IC50 < 5 nM? Oc1cc(Cl)c(C2CC2)c(-c2ncc3c(N4CCCOCC4)nc(OC[C@@]45CCCN4C[C@H](F)C5)nc3c2F)c1
Reply text: fulfilled

Inquiry: Decide: IC50 of CCc1c(F)ccc2cc(O)cc(-c3ncc4c(N5CCO[C@H](C)C5)nc(OC[C@@]56CCCN5C[C@H](F)C6)nc4c3F)c12 strictly below 5 nM?
Reply text: not fulfilled

Inquiry: Does this molecule meet the criterion IC50 < 5 nM? CCc1c(F)ccc2cc(O)cc(-c3ncc4c(N5CCCOCC5)nc(OCC5(CN6CCOCC6)CC5)nc4c3F)c12
Reply text: fulfilled

Inquiry: API: query returns whether the molecule falls strictly under 5 nM in IC50. Query: CCc1c(F)ccc2cc(O)cc(-c3ncc4c(N5CC6COC(C5)C6O)nc(OC[C@@]56CCCN5C[C@H](F)C6)nc4c3F)c12 (relative stereo)
Reply text: not fulfilled

More entries:
Inquiry: Hello, is IC50 of the following molecule strictly smaller than 5 nM? C#CC1(O)COCCN(c2nc(OC[C@@]34CCCN3C[C@H](F)C4)nc3c(F)c(-c4cc(O)cc5ccc(F)c(CC)c45)ncc23)C1 (some centres unmarked)
Reply text: fulfilled
